test name: NCI Yeast Anticancer Drug Screen. Data for the mlh1 rad18 strain (AID 175)
condition summary: S. cerevisiae mlh1 rad18 strain growth inhibition; at 50.0 µM; hits give high values
This is part of a sample that, as a whole, favours compounds with a hit. Of some 79,000 tested, about 15% had one in any assay.
Readings of growth inhibition for the listed compounds
Provide the reading as a plain figure in %.

Recorded results for 5 compounds are shown here.
INSERT INTO results (compound, result_type, quantitative_readout) VALUES
  ('Cc1ccnc(Nc2nnc(Nc3cc(C)ccn3)c3ccccc23)c1', 'growth inhibition', -4.45),
  ('Cc1ccc(NC(=O)Oc2ccc(F)cc2)cc1NC(=O)Oc1ccc(F)cc1', 'growth inhibition', 33.6),
  ('CCOc1cc2c(cc1OC)c[n+](C)c1c3cc(OC)c(OC)cc3ccc21', 'growth inhibition', 14.6),
  ('O=C(O)c1cnc2c(ccc3[nH]cccc32)c1=O', 'growth inhibition', -2.8),
  ('CON(C)c1nc(N)c(C#N)c(C#N)c1C#N', 'growth inhibition', 7.45);

Query: If you can, please state the reported growth inhibition value of NC(=O)C1CC2CC(Cl)C1C2 (stereo not drawn) .
Result: -22.1

Query: If you can, please state the reported growth inhibition value of CN1N=C(N)c2cn(C3OC(COP(=O)(O)O)C(O)C3O)c3ncnc1c23 (stereo not drawn) .
Result: -9.05

Query: If you can, please state the reported growth inhibition value of CC1(C)OC2C(COCc3ccccc3)=CC(n3ccc(=O)[nH]c3=O)C2O1 (stereo not drawn) .
Result: 14.3

----------
test name: NCI Yeast Anticancer Drug Screen. Data for the cln2 rad14 strain (AID 165);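 also: 0% = growth equal to vehicle treated cultures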
condition summary: S. cerevisiae cln2 rad14 strain, at 50.0 µM
Compounds without any hit were thinned out: in the full panel of roughly 79,000, 15% have a hit. Active and inactive are the calls of the source. No stated cut-off is given here; in the data, active means growth inhibition above about 70%; inactive means the rest.
Respond only with the outcome that fits, drawn from label 1 = active, label 0 = inactive

INSERT INTO assay_data (molecule, class_assignment) VALUES
  ('Cc1ccc(N=Nc2c(O)c(C(=O)O)cc3ccccc23)c(S(=O)(=O)O)c1', 'label 0'),
  ('CCSC(SCC)C(Nc1ccc([N+](=O)[O-])cc1[N+](=O)[O-])C(OC(C)=O)C(OC(C)=O)C(COC(C)=O)OC(C)=O (configuration not stated)', 'label 0'),
  ('O=C(c1ccccc1)c1ccc2ccccc2c1C(=O)O', 'label 0'),
  ('O=C(O)C12CCC(CC1=O)C2 (configuration not stated)', 'label 0'),
  ('COC(=O)/C=C/C(=N/N(C)c1ccccc1)c1ccccc1', 'label 0');

Now, please, on to the next molecule.
Query: Entry CCOC(=O)C(=O)c1c[nH]c2ccccc12 : call = ?
Result: label 0

----------
test name: NCI Yeast Anticancer Drug Screen. Data for the mec2-1 strain (AID 157)
condition summary: S. cerevisiae mec2-1 strain, at 50.0 µM, hits give high values
About 79,000 compounds went through this panel and 15% of them were active in at least one assay; those are over-represented in the sample as a whole.
result type: growth inhibition (%)
Provide the reading as a plain figure in %.

INSERT INTO measurements (compound, quantitative_readout) VALUES
  ('CC#CCC1CCC(OCC)=CC1=O (stereo not given)', 9.25);

Query: If you can, please state the reported growth inhibition value of O=C(OCc1ccccc1CN1CCCC1)c1ccc([N+](=O)[O-])cc1Cl .
Result: -15.8

Query: If you can, please state the reported growth inhibition value of c1ccc(-c2ccc(C(=C(c3ccc(-c4ccccc4)cc3)c3ccc(-c4ccccc4)cc3)c3ccc(-c4ccccc4)cc3)cc2)cc1 .
Result: -0.85

Query: If you can, please state the reported growth inhibition value of CC(C)CC(CN(C)C)C(=O)/C=C/c1ccccc1 (stereo not given) .
Result: -2.25

Query: If you can, please state the reported growth inhibition value of CCOc1ccc(/C=N/O)cc1OCC .
Result: -10.1

Query: If you can, please state the reported growth inhibition value of CC1(C(=O)Sc2ccccc2)OC1(C)c1ccccc1 (stereo not given) .
Result: 7.65

Query: If you can, please state the reported growth inhibition value of CC12CC(=O)NC(=O)N1CCS2 (stereo not given) .
Result: 5.6

Query: If you can, please state the reported growth inhibition value of c1ccc(-c2nnc(-c3ccccn3)c3c2C[C@@H]2C[C@@H]4Cc5c(-c6ccccn6)nnc(-c6ccccn6)c5[C@@H]4[C@H]32)nc1 .
Result: 0.1

Query: If you can, please state the reported growth inhibition value of BrCCC[n+]1ccc2ccccc2c1-c1nccc2ccccc12 .
Result: 16.1

Query: If you can, please state the reported growth inhibition value of Cc1[nH]c(=O)c2ccccc2c1O .
Result: -8.15

----------
test name: NCI Yeast Anticancer Drug Screen. Data for the cln2 rad14 strain (AID 165);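 also: 0% = growth equal to vehicle treated cultures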
condition summary: S. cerevisiae cln2 rad14 strain, at 50.0 µM
This is part of a sample that, as a whole, favours compounds with a hit. Of some 79,000 tested, about 15% had one in any assay. The source made the active and inactive calls. Rule as the data show it: active = growth inhibition above about 70%; inactive = the rest.
Respond only with the outcome that fits, drawn from 1 for active, 0 for inactive

Check out these entries, answers already filled in.
INSERT INTO assay_data (compound, class_assignment) VALUES
  ('CCSCCNC(=O)NS(=O)(=O)c1ccc(C)cc1', 0),
  ('CC(=O)ON(C(=O)c1ccccc1)c1ccccc1', 0),
  ('Fc1ccc(/C=C/c2ccc(/C=C/c3ccc(F)cc3)nn2)cc1', 0),
  ('CCCCC1(N=[N+]=[N-])C(=O)c2cccc3c2N(CCC3)C1=O (centres undefined)', 0),
  ('CCOC(N)=C(C#N)C#N', 0),
  ('O=C(CC(c1ccccc1)C(Br)[N+](=O)[O-])c1ccccc1 (centres undefined)', 0),
  ('CC(=O)OCC#Cc1ccccc1', 0),
  ('O=[N+]([O-])c1ccc(N/N=C(/c2ccc3ccccc3c2)c2ccccc2F)c([N+](=O)[O-])c1', 0);

Query: Entry Cc1ccccc1C1OC2=C(Nc3ccc([N+](=O)[O-])cc3N2)C1=O (centres undefined) : call = ?
Result: 0

Query: Entry O=C(O)C1CCCC2C(O)CCC(O)C12 (centres undefined) : call = ?
Result: 0

Query: Entry CC(=O)NCC1CCCO1 (centres undefined) : call = ?
Result: 0

----------
Readings of growth inhibition for the listed compounds
test name: NCI Yeast Anticancer Drug Screen. Data for the rad50 strain (AID 155);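 also: 0% = growth of vehicle-only cultures of the same strain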
condition summary: S. cerevisiae rad50 strain growth inhibition; at 50.0 µM; hits give high values
This is part of a sample that, as a whole, favours compounds with a hit. Of some 79,000 tested, about 15% had one in any assay.
Provide the reading as a plain figure in %.

Recorded results for 3 compounds are shown here.
INSERT INTO assay_data (compound, quantitative_readout) VALUES
  ('CC(C)COC1=CC(=O)c2ccccc2C1=O', 16.4),
  ('Cc1cc(Sc2ccccc2)nc2ccccc12', 8.5),
  ('O=C1C=CC(CCCCCn2ccc(=O)[nH]c2=O)C(=O)N1 (centres undefined)', -8.25);

Query: If you can, please state the reported growth inhibition value of Nc1ccc(N(S(=O)(=O)c2ccccc2)S(=O)(=O)c2ccccc2)c(Cl)c1 .
Result: 77.3

----------
test name: NCI Yeast Anticancer Drug Screen. Data for the rad50 strain (AID 155);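 also: 0% = growth of vehicle-only cultures of the same strain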
condition summary: S. cerevisiae rad50 strain growth inhibition; at 50.0 µM; hits give high values
This is part of a sample that, as a whole, favours compounds with a hit. Of some 79,000 tested, about 15% had one in any assay. Activity calls are given as the source filed them. Rule as the data show it: active = growth inhibition above about 70%; inactive = the rest.
result type: growth inhibition

Recorded results for 5 compounds are shown here.
INSERT INTO results (compound, result_type, result) VALUES
  ('c1ccc2c(c1)OP1(=NP3(=NP4(=NP5(=N1)Oc1ccccc1-c1ccccc1O5)Oc1ccccc1-c1ccccc1O4)Oc1ccccc1-c1ccccc1O3)Oc1ccccc1-2', 'growth inhibition', '7.8% (inactive)'),
  ('Nc1ccc(-c2ccccc2)cc1[N+](=O)[O-]', 'growth inhibition', '33.2% (inactive)'),
  ('CCCCn1cnc2c(SCCNC(=O)N(C)N=O)ncnc21', 'growth inhibition', '6.3% (inactive)'),
  ('CCO/C=C1/N=C(Cc2ccccc2)OC1=O', 'growth inhibition', '18.4% (inactive)'),
  ('COc1ccc(Cc2cc(O)c(OC)cc2O)cc1', 'growth inhibition', '5.55% (inactive)');

Query: If you can, please state the reported growth inhibition value of CC(=O)N=c1ccc2nc(N)nn(O)c-2c1 .
Result: 9.5% (inactive)

Query: If you can, please state the reported growth inhibition value of O=C(NCCCCCCNC(=O)C1CCCN1C(=O)OCc1ccccc1)C1CCCN1C(=O)OCc1ccccc1 (centres undefined) .
Result: 0.6% (inactive)

Query: If you can, please state the reported growth inhibition value of O=S1(=O)CC=CC1 .
Result: -10.2% (inactive)

Query: If you can, please state the reported growth inhibition value of CC1(C)OC2COC(CNS(C)(=O)=O)C2O1 (centres undefined) .
Result: 12.2% (inactive)

Query: If you can, please state the reported growth inhibition value of COc1cc(O)c(C(C)c2ccccc2)cc1N=O (centres undefined) .
Result: -9.45% (inactive)

Query: If you can, please state the reported growth inhibition value of C[n+]1c(I)ccc2ccccc21 .
Result: 35% (inactive)

Query: If you can, please state the reported growth inhibition value of CCCCCCCCCCC(CO)CCCCCCCC (centres undefined) .
Result: -14.8% (inactive)

Query: If you can, please state the reported growth inhibition value of O=C1CSC(=NCCN=C2NC(=O)CS2)N1 .
Result: 10.5% (inactive)

Query: If you can, please state the reported growth inhibition value of Cc1ccc(C2(c3ccc(C)cc3)OCC(C)(CBr)CO2)cc1 .
Result: -30% (inactive)

Where do these numbers come from? They come from PubChem BioAssay (NCI).
